Data origin: ChEMBL document CHEMBL1681743

assay.explanation: Tmax in BALB/c mouse at 5 mg/kg, iv
Assay type: ADME, organism-based
Design: dose 5 mg/kg, route intravenous
details: in vivo
Counter-ions that a name gives are not always drawn.
Please go through the items and note down their Tmax.
Just so you know, I need the unit written after the number.

Below, each entry is followed by its recorded Tmax result.
{"compound": "C=C1C[C@@H]2CC[C@@]34C[C@H]5O[C@H]6[C@@H](O3)[C@H]3O[C@H](CC[C@@H]3O[C@H]6[C@H]5O4)CC(=O)C[C@@H]3[C@@H](OC)[C@@H](C[C@H](O)CN)O[C@H]3C[C@H]3O[C@@H](CC[C@@H]1O2)C[C@@H](C)C3=C [ERIBULIN MESYLATE]", "Tmax": "30 min"}
{"compound": "C=C(C)CN1CCO[C@@H](C[C@H]2O[C@H]3C[C@H]4O[C@@H](CC[C@@H]5O[C@@H](CC[C@@]67C[C@H]8O[C@H]9[C@@H](O6)[C@H]6O[C@H](CC[C@@H]6O[C@H]9[C@H]8O7)CC(=O)C[C@@H]3[C@H]2OC)CC5=C)C[C@@H](C)C4=C)C1", "Tmax": "4.8 min"}
{"compound": "C=C1C[C@@H]2CC[C@@]34C[C@H]5O[C@H]6[C@@H](O3)[C@H]3O[C@H](CC[C@@H]3O[C@H]6[C@H]5O4)CC(=O)C[C@@H]3[C@@H](OC)[C@@H](CCCN4CCOCC4)O[C@H]3C[C@H]3O[C@@H](CC[C@@H]1O2)C[C@@H](C)C3=C", "Tmax": "15 min"}
{"compound": "C=C1C[C@@H]2CC[C@@]34C[C@H]5O[C@H]6[C@@H](O3)[C@H]3O[C@H](CC[C@@H]3O[C@H]6[C@H]5O4)CC(=O)C[C@@H]3[C@@H](OC)[C@@H](C[C@@H](CN4CC(C)CC(C)C4)OC)O[C@H]3C[C@H]3O[C@@H](CC[C@@H]1O2)C[C@@H](C)C3=C (stereo not given in full)", "Tmax": "4.8 min"}

From here, focus on the item given below.
Ask: Please look up its Tmax: `C=C1C[C@@H]2CC[C@@]34C[C@H]5O[C@H]6[C@@H](O3)[C@H]3O[C@H](CC[C@@H]3O[C@H]6[C@H]5O4)CC(=O)C[C@@H]3[C@@H](OC)[C@@H](C[C@@H](CN4CCOCC4)OC)O[C@H]3C[C@H]3O[C@@H](CC[C@@H]1O2)C[C@@H](C)C3=C`
Reply: 4.8 min
